Measured self-cleavage values are reported for all entries that follow.
B1: Hairpin Ribozyme (parent)
chain: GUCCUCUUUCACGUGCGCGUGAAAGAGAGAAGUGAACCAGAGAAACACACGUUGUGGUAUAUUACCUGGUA

Variants of: B1
Assay: self-cleavage, relative activity (ratio to wild type); higher = more cleavage; co-transcriptional
Keep the answer to the number alone.

U7A G27A: 0.27
G54C C66U: 0.254
A30U U62A: 0.177

I have this variant here, G29U G34U , and I need its recorded self-cleavage.
0.124

The reported numbers originate from the RNAGym collection of RNA variant scans (doi:10.7554/elife.80360).
